study.system: Bromodomain-containing protein 4 (Homo sapiens, UniProt O60885)
protocol.description: Inhibition of human His tagged BRD4-BD1 incubated for 30 mins followed by addition of biotinylated peptide and further incubation for 30 mins measured by AlphaScreen assay

{"compound.string": "Cc1cc2cc(NS(=O)(=O)c3ccc(C#N)cc3)ccc2n(C)c1=O", "study.system": "Bromodomain-containing protein 4 (Homo sapiens, UniProt O60885)", "IC50": "> 20 µM"}
{"compound.string": "CCc1cc2cc(NS(=O)(=O)c3ccc(C#N)cc3)ccc2n(CC)c1=O", "study.system": "Bromodomain-containing protein 4 (Homo sapiens, UniProt O60885)", "IC50": "> 20 µM"}
